# tested-target: Metabotropic glutamate receptor 1 (Homo sapiens, UniProt Q13255)
# Sequence (Q13255 whole entry): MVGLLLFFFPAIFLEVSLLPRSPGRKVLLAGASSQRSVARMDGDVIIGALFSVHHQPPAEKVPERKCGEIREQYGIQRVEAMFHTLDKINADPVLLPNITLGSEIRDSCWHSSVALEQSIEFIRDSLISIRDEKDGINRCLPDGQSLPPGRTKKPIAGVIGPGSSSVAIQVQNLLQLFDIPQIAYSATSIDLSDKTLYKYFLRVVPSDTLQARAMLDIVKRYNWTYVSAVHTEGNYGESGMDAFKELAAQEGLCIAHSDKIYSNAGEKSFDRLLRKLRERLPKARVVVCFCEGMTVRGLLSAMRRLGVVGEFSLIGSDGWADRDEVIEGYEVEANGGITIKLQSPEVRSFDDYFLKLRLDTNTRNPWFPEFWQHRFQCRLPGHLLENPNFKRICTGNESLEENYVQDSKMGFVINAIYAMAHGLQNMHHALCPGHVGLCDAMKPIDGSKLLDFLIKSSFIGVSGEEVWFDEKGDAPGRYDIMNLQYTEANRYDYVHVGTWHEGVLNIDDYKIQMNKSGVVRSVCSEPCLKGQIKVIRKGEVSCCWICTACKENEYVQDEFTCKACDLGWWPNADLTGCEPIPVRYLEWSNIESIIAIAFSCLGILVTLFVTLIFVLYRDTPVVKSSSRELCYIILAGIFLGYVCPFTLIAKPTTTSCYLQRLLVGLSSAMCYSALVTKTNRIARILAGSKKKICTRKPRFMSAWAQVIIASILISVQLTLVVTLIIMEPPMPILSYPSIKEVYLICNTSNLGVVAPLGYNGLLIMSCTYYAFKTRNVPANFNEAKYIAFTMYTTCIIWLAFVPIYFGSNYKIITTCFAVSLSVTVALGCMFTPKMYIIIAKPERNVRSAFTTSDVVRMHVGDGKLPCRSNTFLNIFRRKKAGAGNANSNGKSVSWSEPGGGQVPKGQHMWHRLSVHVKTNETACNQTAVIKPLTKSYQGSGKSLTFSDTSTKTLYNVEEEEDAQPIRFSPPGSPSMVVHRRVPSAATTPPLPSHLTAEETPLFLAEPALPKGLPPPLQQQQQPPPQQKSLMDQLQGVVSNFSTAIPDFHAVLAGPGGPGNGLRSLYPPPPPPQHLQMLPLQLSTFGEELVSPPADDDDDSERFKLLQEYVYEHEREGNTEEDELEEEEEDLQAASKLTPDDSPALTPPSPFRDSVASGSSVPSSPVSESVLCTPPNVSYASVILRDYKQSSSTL
# method: Positive allosteric modulation of human mGlu1 receptor by cell based calcium mobilization
# Assay type: functional
# measurement-context: read-out: pEC50 (converted)
Classify: y when EC50 is strictly less than 20 nM; n when EC50 is not.

In plain terms, does Cc1scnc1C(=O)Nc1ccc(N2C(=O)c3ccccc3C2=O)c(Cl)c1 come in under 20 nM for EC50?
n

----------
# method: Clearance in rat liver microsomes
Each entry below carries its recorded CLhep predicted.
Report field: quantity (unit follows the number).

Tell me its CLhep predicted given Cc1ccoc1C(=O)Nc1ccc(N2C(=O)c3cccc(C)c3C2=O)cc1F as the entry.
28.9 mL/min/kg

----------
# Species on record: Homo sapiens
# method: Selectivity ratio of EC50 for human mGlu4 receptor to EC50 for human mGlu1 receptor
readout-label: Ratio EC50

The following compounds have reported results that may help.
# structure-as-smiles, recorded-result
records = [
    ("Cc1scnc1C(=O)Nc1ccc(N2C(=O)c3cccc(F)c3C2=O)c(Cl)c1", 2.5),
    ("Cc1cn[nH]c1C(=O)Nc1ccc(N2C(=O)c3ccc(F)cc3C2=O)c(Cl)c1", 9.8),
    ("Cc1ocnc1C(=O)Nc1ccc(N2C(=O)c3cccc(Cl)c3C2=O)c(Cl)c1", 0.7),
    ("Cc1scnc1C(=O)Nc1ccc(N2C(=O)c3ccc(F)cc3C2=O)c(Cl)c1", 4.9),
    ("Cc1cn[nH]c1C(=O)Nc1ccc(N2C(=O)c3ccc(Cl)cc3C2=O)c(Cl)c1", 3.9),
]

Entry Cc1ccc2c(c1)C(=O)N(c1ccc(NC(=O)c3ncoc3C)cc1Cl)C2=O needs its Ratio EC50 filled in; supply it.
4.8

Return Ratio EC50 (reported value) for this compound: Cc1cccc2c1C(=O)N(c1ccc(NC(=O)c3ncoc3C)cc1Cl)C2=O
0.9

Specify Ratio EC50 for Cc1scnc1C(=O)Nc1ccc(N2C(=O)c3ccc(Cl)cc3C2=O)c(Cl)c1 and stop.
39.1

----------
Consider the following compounds and their measured EC50 readings.
# tested-target: Metabotropic glutamate receptor 1 (Homo sapiens)
# method: Positive allosteric modulation of human mGlu1 receptor by cell based calcium mobilization
# Type: functional
# measurement-context: read-out: EC50
The response must be a number in nM with no trailing unit.

Below: 4 compounds and their reported EC50.
# structure-as-smiles, tested-target, EC50 [nM]
rows = [
    ("Cc1cn[nH]c1C(=O)Nc1ccc(N2C(=O)c3ccccc3C2=O)c(Cl)c1", "Metabotropic glutamate receptor 1 (Homo sapiens)", 1240),
    ("Cc1ccc2c(c1)C(=O)N(c1ccc(NC(=O)c3nccn3C)cc1Cl)C2=O", "Metabotropic glutamate receptor 1 (Homo sapiens)", 254),
    ("Cc1scnc1C(=O)Nc1ccc(N2C(=O)c3ccccc3C2=O)c(Cl)c1", "Metabotropic glutamate receptor 1 (Homo sapiens)", 56),
    ("Cc1scnc1C(=O)Nc1ccc(N2C(=O)c3cccnc3C2=O)c(Cl)c1", "Metabotropic glutamate receptor 1 (Homo sapiens)", 191),
]

Report EC50, nothing else, for this compound: Cc1ccc2c(c1)C(=O)N(c1ccc(NC(=O)c3[nH]ncc3C)cc1Cl)C2=O
557

Quickly give me recorded EC50 for Cc1ocnc1C(=O)Nc1ccc(N2C(=O)c3cccnc3C2=O)c(Cl)c1
1700

----------
# tested-target: Metabotropic glutamate receptor 4 (Homo sapiens)
# Sequence (Q14833 whole entry): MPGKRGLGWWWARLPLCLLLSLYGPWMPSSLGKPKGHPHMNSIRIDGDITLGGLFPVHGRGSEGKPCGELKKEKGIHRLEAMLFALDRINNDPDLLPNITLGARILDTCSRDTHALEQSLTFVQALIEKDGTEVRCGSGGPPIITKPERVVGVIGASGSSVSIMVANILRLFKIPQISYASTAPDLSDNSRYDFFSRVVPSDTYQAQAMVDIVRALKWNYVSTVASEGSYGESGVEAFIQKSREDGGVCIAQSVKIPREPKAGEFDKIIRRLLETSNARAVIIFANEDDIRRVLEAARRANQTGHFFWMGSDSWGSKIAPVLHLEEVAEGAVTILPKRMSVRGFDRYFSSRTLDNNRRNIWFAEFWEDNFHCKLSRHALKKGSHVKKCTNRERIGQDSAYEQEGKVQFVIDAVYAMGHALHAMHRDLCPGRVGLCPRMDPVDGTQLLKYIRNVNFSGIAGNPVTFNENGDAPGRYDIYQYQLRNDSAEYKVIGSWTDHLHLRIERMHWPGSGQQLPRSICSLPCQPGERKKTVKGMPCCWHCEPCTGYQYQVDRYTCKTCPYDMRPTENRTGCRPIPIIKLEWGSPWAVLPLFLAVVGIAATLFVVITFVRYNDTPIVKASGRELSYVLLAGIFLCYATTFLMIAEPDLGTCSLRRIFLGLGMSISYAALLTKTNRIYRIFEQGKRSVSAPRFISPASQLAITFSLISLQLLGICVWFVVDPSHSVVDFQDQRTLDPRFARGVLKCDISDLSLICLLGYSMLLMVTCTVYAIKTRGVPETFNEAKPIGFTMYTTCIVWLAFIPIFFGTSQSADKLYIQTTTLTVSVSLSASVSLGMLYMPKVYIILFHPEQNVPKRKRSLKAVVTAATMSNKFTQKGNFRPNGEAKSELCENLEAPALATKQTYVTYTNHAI
# method: Positive allosteric modulation of human mGlu4 receptor by cell based calcium mobilization
Listed here are compounds together with their documented pEC50.
// pEC50 here means minus log10 of the molar concentration (mol/L)

Identify measured pEC50 associated with Cc1scnc1C(=O)Nc1ccc(N2C(=O)c3ccc(F)cc3C2=O)c(Cl)c1
6.51

Write down pEC50 measured for item Cn1ccnc1C(=O)Nc1ccc(N2C(=O)c3ccc(F)cc3C2=O)c(Cl)c1
5.97

Complete the entry with pEC50 for Cc1ocnc1C(=O)Nc1ccc(N2C(=O)c3cccc(Cl)c3C2=O)c(Cl)c1
6.01

Answer with the recorded pEC50 of Cc1scnc1C(=O)Nc1ccc(N2C(=O)c3cccc(F)c3C2=O)c(Cl)c1 only.
6.32
